PROTOCOL TEXT: Thermogravimetric analysis (TGA), decomposition temperature
Assay type: physicochemical
Counter-ions that a name gives are not always drawn.
READOUT: ΔTdec (increase in decomposition temperature relative to HCl starting material)

Consider the worked cases shown below.
{"MOLECULE": "CNC(=C[N+](=O)[O-])NCCSCc1ccc(CN(C)C)o1.Cl.[Cl][Zn][Cl].[Cl][Zn][Cl]", "TEST RESULT": "+14.1 °C"}
{"MOLECULE": "CN1[C@@H]2CC[C@H]1CC(OC(=O)C(O)c1ccccc1)C2 (stereo partly shown) [Homatropine-HCl—(ZnCl2)2]", "TEST RESULT": "+7.8 °C"}
{"MOLECULE": "CC(COc1ccccc1)N(CCCl)Cc1ccccc1.Cl.[Cl][Zn][Cl].[Cl][Zn][Cl] (stereo not shown) [Phenoxybenzamine-HCl—(ZnCl2)2]", "TEST RESULT": "+45.1 °C"}

Okay, now this molecule:
Exam item: Return value of ΔTdec (increase in decomposition temperature relative to HCl starting material) for input CN(C)CCCN1c2ccccc2CCc2ccccc21.Cl.[Cl][Zn][Cl].[Cl][Zn][Cl] [Imipramine-HCl—(ZnCl2)2] , no commentary.
Marked response: +21.4 °C
